ASSAY NOTES: Binding affinity to duplex DNA dT bulge (unknown origin) assessed as change in melting point at 50 uM by UV-Vis spectrophotometric analysis
QUANTITY NAME: ΔTm (°C)

NCCCC(=O)Nc1ccc2ccc3cc[nH]c3c2n1
3.6
NCC(=O)Nc1ccc2ccc3cc[nH]c3c2n1
2.9
NCCC(=O)Nc1ccc2ccccc2n1
0.3
NCCCCC(=O)Nc1ccc2ccc3cc[nH]c3c2n1
2.6
NCCCNC(=O)Nc1ccc2ccc3cc[nH]c3c2n1
5.2

A: NCCCNC(=O)Nc1ccc2ccccc2n1
B: NCCC(=O)Nc1ccc2ccc3cc[nH]c3c2n1
Endpoint returns the identifier whose ΔTm is numerically larger, either A or B . Indicate your choice by writing its label.
B
(B: 4.7 °C, A: 1.3 °C)
